Origin of measurements: a melting point compilation (Tetko et al.; mined from patent text by program, amines drawn as free bases though some values may be those of a salt)

Can you tell me melting point for the items I'm about to list?

Guide cases for melting point, answers given:
>  <molecule>
CC(C)Cc1ncn(C(C)C(O)(Cc2nc[nH]n2)c2ccc(Cl)cc2)n1 (centres undefined)

>  <melting point>
140 to 141 °C

$$$$
>  <molecule>
COc1cc(-c2csc(-c3ccccc3)n2)cc2oc(=O)c(C)c(C)c12

>  <melting point>
152 to 154 °C

$$$$
>  <molecule>
CC1=NN(C(=O)NS(=O)(=O)c2c(F)cccc2F)CC1

>  <melting point>
196 °C

$$$$
>  <molecule>
O=C(Nc1cccc(F)n1)c1cc(-c2ccc(Cl)cc2)nc2ccccc12

>  <melting point>
200 to 201 °C

$$$$

Your task in this section: give melting point for each listed record.
1. Nc1ncnc2c1c(-c1ccc(OCc3ccccc3)cc1)cn2-c1ccc(OCCn2ccnc2)cc1
2. CCC1(C)CCCC(C)(C)N1OC(C)(C)C#N (centres undefined)
3. CN(C(=O)COc1nc2c(F)cccc2s1)c1ccccc1

[out]
1. 105 to 107 °C
2. 41 to 52 °C
3. 94 °C

Your task in this section: give melting point for each listed record.
1. Cc1ccc(-c2ccc(C(=O)Nc3ccc4cc(CN5CCCC5)cnc4c3C)cc2)cc1
2. O=[N+]([O-])c1cc(CN2CCN(C(c3ccccc3)c3ccccc3)CC2)ccc1Cl
3. CN1CCN(Cc2ccc(-c3cccc(-c4ccnc5c(C(=O)c6cccs6)cnn45)c3)cc2)CC1
4. Cc1ccc(-n2c(-c3cc(-c4ccc(Cl)cc4)c(N4CCOCC4)s3)nc3ccccc3c2=O)cc1

[out]
1: 177 to 179 °C; 2: 102 °C; 3: 199 to 202 °C; 4: 224 to 226 °C

Your task in this section: give melting point for each listed record.
1. N#CCCNC(=O)c1cccc(-c2cccc(Oc3ccc(Cl)cc3)n2)c1
2. COc1cc(Nc2c(C#N)cnc3cc(-c4ccc(CN5CCC(CC(=O)O)CC5)cc4)ccc23)c(Cl)cc1Cl
3. CC(C)Cn1c(=O)n(C)c(=O)c2cc(Cn3cnc4ccccc43)sc21
4. COC(=O)c1ccc2c(c1)C(=O)c1ccc(C(=O)OC)cc1C2=O
5. COc1ccc(C(=O)Nc2cccc(O)c2NC(=O)c2ccc(OC)cc2)cc1
6. Cc1sc(N)c(C(=O)c2cccc3ccccc23)c1C
7. CCCCCCCCCCCCCCCC(=O)Nc1cscc1NC(=O)CCCCCCCCCCCCCCC
8. CN1CCN(C2=Nc3ccccc3N(C=O)c3ccncc32)CC1

[out]
["143 to 144 °C", "239 to 240 °C", "198 to 199 °C", "260 °C", "208 to 209 °C", "195 to 197 °C", "107 to 109 °C", "196 °C"]

---

Can you tell me melting point for the items I'm about to list?

Guide cases for melting point, answers given:
>  <compound>
CC(C)NC(=O)N1C(=O)Cc2ccccc21

>  <melting point>
84 to 85.5 °C

$$$$
>  <compound>
CC1CCC(=Nc2ccccc2)N1Cc1c[nH]c2ccccc12 (stereo not given)

>  <melting point>
88 to 92 °C

$$$$
>  <compound>
CC1(c2ccccc2)C(=O)Nc2cc(Cl)cc(Cl)c2C1=O (stereo not given)

>  <melting point>
222 to 225 °C

$$$$
>  <compound>
Brc1ccc2c(c1)c1cc(Br)ccc1n2-c1ccccc1

>  <melting point>
163 to 164 °C

$$$$
>  <compound>
O=CCC(=O)Nc1ccccc1

>  <melting point>
150 to 153 °C

$$$$
>  <compound>
CCCCCCCCCCCCCCCCCC(=O)Oc1ccc([N+](=O)[O-])cc1OC(=O)CCCCCCCCCCCCCCCCC

>  <melting point>
68 to 70 °C

$$$$
>  <compound>
CS(=O)CCNC(N)=O (stereo not given)

>  <melting point>
88 °C

$$$$
>  <compound>
COC(=O)COc1cc(N(C(=O)CCl)C(=O)C2=C(C(=O)OC)CCCC2)c(F)cc1Cl

>  <melting point>
144 to 145 °C

$$$$
>  <compound>
CN(Cc1ccc(NC(=O)C2=Cc3cc(-c4ccc(F)cc4)ccc3S(=O)(=O)CC2)cc1)C1CCOCC1

>  <melting point>
219 to 221 °C

$$$$

[in] Need melting point of COc1cc(C(C)C)c2c(c1)S(=O)(=O)N(COP(=O)(OCc1ccccc1)OCc1ccccc1)C2=O , thanks.
[out] 75.5 to 76.5 °C

---

measured.metric: melting point

>  <compound>
CN1CC(CNCCC#N)CC2c3cccc4[nH]cc(c34)CC21 (stereo not given)

>  <melting point>
169 to 171 °C

$$$$
>  <compound>
CCCCc1cn(C)cc(-c2cccc(C(F)(F)F)c2)c1=O

>  <melting point>
82.5 to 84 °C

$$$$
>  <compound>
COC(=O)c1ccc(C=C2CCn3c2nc2cc(N)ccc2c3=O)cc1

>  <melting point>
292 to 295 °C

$$$$
>  <compound>
COc1cc2c(cc1OC)CN(CCc1ccc(NC(=O)c3cccc4c(=O)c5cccc(OC)c5[nH]c34)cc1)C2

>  <melting point>
215 to 225 °C

$$$$
>  <compound>
O=C(Cl)N1CC=C(c2ccccc2)CC1

>  <melting point>
63 °C

$$$$
>  <compound>
COC(=O)c1cc(=O)c2oc3cc(OC)ccc3c(=O)c2[nH]1

>  <melting point>
258 to 260 °C

$$$$

Your task in this section: give melting point for each listed record.
1. CCOC(=O)NN(C)c1ccc(-c2ccc(F)cc2)nn1
2. CCC(CC)c1nn(-c2ccc(Cl)cn2)cc1CCCO
3. O=C(c1ccccc1)c1ccc(O)c(Cl)c1
4. COC(=O)c1ccc(NC(=O)c2sc3ccc(OC)cc3c2OC(C)C)cc1O
5. Cc1cccc(N2CCN(c3nnc(Cl)c(C)c3C)CC2)c1C
6. CCOC(=O)C=Cc1cc(OC)ccc1-c1ccc(-c2ccc(OC)c(Cl)c2)c(C=O)c1

[out]
160 to 161 °C
62 to 63 °C
180 °C
158 to 160 °C
194 °C
150 to 152 °C

Your task in this section: give melting point for each listed record.
1. C=CC(=O)N(C1CC(C)(C)NC(C)(C)C1)C1CC(C)(C)NC(C)(C)C1
2. O=C1NC(=O)C(N(CC#Cc2ccc(F)cc2)c2ccc(CCNCC(O)COc3ccc(OCc4ccccc4)cc3)cc2)S1 (stereo not given)
3. COc1cc(C(=O)NS(=O)(=O)c2ccccc2C)ccc1Cn1cc(/C=C/C(=O)N2CCCC2)c2ccc(/C=C/C(=O)N3CCCC3)cc21
4. CCOC(=O)N1CCC(c2nc(-c3ccc(-c4ccccc4)cc3)c[nH]2)CC1
5. Cc1ccc(Oc2ccccc2-n2cc(C(=O)O)cn2)c(O)c1

[out]
115 to 118 °C
99 to 101 °C
297 to 299 °C
71 to 72 °C
219 to 221 °C

Your task in this section: give melting point for each listed record.
1. CC(=O)N1Cc2c(-c3noc(C4CC4)n3)ncn2-c2cccc(F)c21
2. CC(C)(CC(C)(c1ccccc1)c1ccc(O)c(C(=O)O)c1)c1ccccc1 (stereo not given)

[out]
["208 to 210 °C", "153 to 155 °C"]

---

Can you tell me melting point for the items I'm about to list?

Guide cases for melting point, answers given:
>  <molecule>
C[C@@H](n1cnc2ncccc2c1=O)[C@](O)(Cn1cncn1)c1ccc(F)cc1F

>  <melting point>
210 to 211 °C

$$$$
>  <molecule>
CN(C)C(=O)C1CCN(c2c(Cl)cncc2Cl)CC1

>  <melting point>
120 to 122 °C

$$$$
>  <molecule>
O=C(Nc1nc2c(Oc3cc(-c4ccc(C(F)(F)F)cc4)ncn3)cccc2s1)C(O)c1ccccc1 (stereo not given)

>  <melting point>
198 to 205 °C

$$$$
>  <molecule>
N#CC(=Cc1ccc(C=Cc2ccccc2)cc1)S(=O)(=O)c1ccccc1

>  <melting point>
179 to 183 °C

$$$$
>  <molecule>
Cn1ncc(C(=O)N2CCC2)c1C(=O)Nc1ccn2nc(-c3cccc(F)c3)nc2c1

>  <melting point>
232 to 236 °C

$$$$

Your task in this section: give melting point for each listed record.
1. NC(=O)CNC(=O)c1cccc(-c2cccc3cc(Cc4cccc(CO)c4)sc23)c1
2. CC(C)n1nc(-c2sc(NC(=O)c3ccc(CN(C)CCc4ccccn4)cc3)nc2-c2ccccc2)ccc1=O

[out]
["155 to 156 °C", "172 to 174 °C"]

---

Can you tell me melting point for the items I'm about to list?

Guide cases for melting point, answers given:
>  <compound>
O=C(NC(=O)c1ccccc1Cl)C(=C1NCCCS1)[N+](=O)[O-]

>  <melting point>
130 to 131 °C

$$$$
>  <compound>
[N-]=[N+]=NC1CC(n2cnc3c(NC4CC4c4ccccc4)nc(N)nc32)OC1CO (centres undefined)

>  <melting point>
65 to 70 °C

$$$$
>  <compound>
CO[C@]1(c2ncc(S(=O)(=O)c3ccc(/C(C)=N/O)cc3)s2)CCO[C@@H]1C (racemic)

>  <melting point>
139 to 141 °C

$$$$
>  <compound>
Cn1cncc1C(O)(c1ccc(Cl)cc1)c1ccc2c(c1)C(c1cccc(Cl)c1)SCc1nnnn1-2 (centres undefined)

>  <melting point>
217 °C

$$$$
>  <compound>
COc1ccc(NCCNc2ccc([N+](=O)[O-])cc2)cc1

>  <melting point>
150 °C

$$$$

Your task in this section: give melting point for each listed record.
1. CC(=O)N1CCC2(CC1)CN=C(c1cc3sc(C)c(N(C)S(=O)(=O)c4cccs4)c3[nH]1)S2
2. c1c(N2CCNCC2)nc(N2CCC3(CC2)OCCO3)nc1N1CCC2(CC1)OCCO2
3. CCCc1cc(=O)oc2c(C=O)c(O)c3c(c12)OC(C)(C)C=C3
4. CSC(=NC(=O)COC(C)=O)N(C)N=Cc1ccccc1

[out]
1. 231 °C
2. 130 to 140 °C
3. 116 to 117 °C
4. 115 to 117 °C
